test system: HARA; test: relative viability (nuclei count vs DMSO), 5 days (fraction); higher = more cells survive; details: first compound 0.08 µM
Under this convention, Satisfied denotes relative viability strictly below 0.7 and Not satisfied denotes relative viability at or above 0.7.

1) C=C1C(=O)O[C@@H](CCCCCCCC)[C@@H]1C(=O)O [C-75] + Cc1nc(NC(=O)N2CCC[C@H]2C(N)=O)sc1-c1ccnc(C(C)(C)C(F)(F)F)c1 [Alpelisib] (partner 2 µM)
Not satisfied
2) Oc1nc(-c2ccc(C(F)(F)F)cc2)nc2c1CSCC2 [XAV939] + Cc1nc(NC(=O)N2CCC[C@H]2C(N)=O)sc1-c1ccnc(C(C)(C)C(F)(F)F)c1 [Alpelisib] (partner 2 µM)
Not satisfied
3) Oc1nc(-c2ccc(C(F)(F)F)cc2)nc2c1CSCC2 [XAV939] + O=C(c1cc(Cc2n[nH]c(=O)c3ccccc23)ccc1F)N1CCN(C(=O)C2CC2)CC1 [Olaparib] (partner 8 µM)
Not satisfied
4) Oc1nc(-c2ccc(C(F)(F)F)cc2)nc2c1CSCC2 [XAV939] + Cc1nc(Nc2ncc(C(=O)Nc3c(C)cccc3Cl)s2)cc(N2CCN(CCO)CC2)n1 [Dasatinib] (partner 0.075 µM)
Satisfied
5) Oc1nc(-c2ccc(C(F)(F)F)cc2)nc2c1CSCC2 [XAV939] + C[C@]1(O)C[C@@H](c2nc(-c3ccc4ccc(-c5ccccc5)nc4c3)c3c(N)nccn32)C1 [Linsitinib] (partner 1 µM)
Not satisfied
6) Oc1nc(-c2ccc(C(F)(F)F)cc2)nc2c1CSCC2 [XAV939] + NC(=O)Nc1cc(-c2cccc(F)c2)sc1C(=O)N[C@H]1CCCNC1 [AZD7762] (partner 0.2 µM)
Satisfied
7) C=C1C(=O)O[C@@H](CCCCCCCC)[C@@H]1C(=O)O [C-75] + Nc1ncn([C@H]2C[C@H](O)[C@@H](CO)O2)c(=O)n1 [Decitabine] (partner 2 µM)
Satisfied
8) C=C1C(=O)O[C@@H](CCCCCCCC)[C@@H]1C(=O)O [C-75] + COc1cccc2cc(-c3nc([C@H]4CC[C@H](C(=O)O)CC4)n4ncnc(N)c34)[nH]c12 [OSI-027] (partner 0.5 µM)
Satisfied
9) Oc1nc(-c2ccc(C(F)(F)F)cc2)nc2c1CSCC2 [XAV939] + CCNC(=O)c1noc(-c2cc(C(C)C)c(O)cc2O)c1-c1ccc(CN2CCOCC2)cc1 [Luminespib] (partner 0.01 µM)
Not satisfied

---

tested on: RERF-LC-KJ; test: relative viability (nuclei count vs DMSO), 5 days (fraction); higher = more cells survive; settings: first compound 0.8 µM
Could you mark each record fulfilled if its relative viability falls strictly under 0.7, and not fulfilled if it equals or exceeds it?

1) Oc1nc(-c2ccc(C(F)(F)F)cc2)nc2c1CSCC2 [XAV939] + N=C(N)NC(=N)NCCc1ccccc1 [Phenformin] (partner 250 µM)
fulfilled
2) C=C1C(=O)O[C@@H](CCCCCCCC)[C@@H]1C(=O)O [C-75] + CS(=O)(=O)N1CCN(Cc2cc3nc(-c4cccc5[nH]ncc45)nc(N4CCOCC4)c3s2)CC1 [Pictilisib] (partner 1 µM)
fulfilled
3) Oc1nc(-c2ccc(C(F)(F)F)cc2)nc2c1CSCC2 [XAV939] + Nc1nc2[nH]cc(CCc3ccc(C(=O)N[C@@H](CCC(=O)O)C(=O)O)cc3)c2c(=O)[nH]1 [Pemetrexed] (partner 0.2 µM)
fulfilled
4) Oc1nc(-c2ccc(C(F)(F)F)cc2)nc2c1CSCC2 [XAV939] + CC1(C)CCC(c2ccc(Cl)cc2)=C(CN2CCN(c3ccc(C(=O)NS(=O)(=O)c4ccc(N[C@H](CCN5CCOCC5)CSc5ccccc5)c(S(=O)(=O)C(F)(F)F)c4)cc3)CC2)C1 [Navitoclax] (partner 0.5 µM)
not fulfilled
5) Oc1nc(-c2ccc(C(F)(F)F)cc2)nc2c1CSCC2 [XAV939] + CS(=O)(=O)CCNCc1ccc(-c2ccc3ncnc(Nc4ccc(OCc5cccc(F)c5)c(Cl)c4)c3c2)o1 [Lapatinib] (partner 2 µM)
fulfilled
6) C=C1C(=O)O[C@@H](CCCCCCCC)[C@@H]1C(=O)O [C-75] + COc1cc2c(Oc3ccc(NC(=O)C4(C(=O)Nc5ccc(F)cc5)CC4)cc3F)ccnc2cc1OCCCN1CCOCC1 [Foretinib] (partner 0.25 µM)
not fulfilled
7) C=C1C(=O)O[C@@H](CCCCCCCC)[C@@H]1C(=O)O [C-75] + CCNC(=O)c1noc(-c2cc(C(C)C)c(O)cc2O)c1-c1ccc(CN2CCOCC2)cc1 [Luminespib] (partner 0.01 µM)
not fulfilled
8) Oc1nc(-c2ccc(C(F)(F)F)cc2)nc2c1CSCC2 [XAV939] + CC(=O)Nc1cccc(-n2c(=O)n(C3CC3)c(=O)c3c(Nc4ccc(I)cc4F)n(C)c(=O)c(C)c32)c1 [Trametinib] (partner 0.02 µM)
not fulfilled

---

system: NCI-H3122; assay: relative viability (nuclei count vs DMSO), 5 days (fraction); higher = more cells survive; conditions: first compound 1 µM
PROPERTY: relative viability

1) NC(=O)Nc1cc(-c2cccc(F)c2)sc1C(=O)N[C@H]1CCCNC1 [AZD7762] + O=C(CCCCCCC(=O)Nc1ccccc1)NO [Vorinostat] (partner 1 µM)
0.973
2) NC(=O)Nc1cc(-c2cccc(F)c2)sc1C(=O)N[C@H]1CCCNC1 [AZD7762] + Cc1cc(Nc2cc(N3CCN(C)CC3)nc(Sc3ccc(NC(=O)C4CC4)cc3)n2)n[nH]1 [Tozasertib] (partner 0.1 µM)
0.156
3) NC(=O)Nc1cc(-c2cccc(F)c2)sc1C(=O)N[C@H]1CCCNC1 [AZD7762] + Cc1nc(NC(=O)N2CCC[C@H]2C(N)=O)sc1-c1ccnc(C(C)(C)C(F)(F)F)c1 [Alpelisib] (partner 2 µM)
0.758
4) NC(=O)Nc1cc(-c2cccc(F)c2)sc1C(=O)N[C@H]1CCCNC1 [AZD7762] + Nc1ncn([C@H]2C[C@H](O)[C@@H](CO)O2)c(=O)n1 [Decitabine] (partner 2 µM)
0.434
5) NC(=O)Nc1cc(-c2cccc(F)c2)sc1C(=O)N[C@H]1CCCNC1 [AZD7762] + C[C@@H](Oc1cc(-c2cnn(C3CCNCC3)c2)cnc1N)c1c(Cl)ccc(F)c1Cl [Crizotinib] (partner 1 µM)
0.283

---

Entries and their relative viability values follow.
tested on: HCC-15; test: relative viability (nuclei count vs DMSO), 5 days (fraction); higher = more cells survive; conditions: first compound 0.8 µM
PROPERTY: relative viability

1) C=C1C(=O)O[C@@H](CCCCCCCC)[C@@H]1C(=O)O [C-75] + CS(=O)(=O)CCNCc1ccc(-c2ccc3ncnc(Nc4ccc(OCc5cccc(F)c5)c(Cl)c4)c3c2)o1 [Lapatinib] (partner 2 µM)
0.878
2) C=C1C(=O)O[C@@H](CCCCCCCC)[C@@H]1C(=O)O [C-75] + CC1(C)CCC(c2ccc(Cl)cc2)=C(CN2CCN(c3ccc(C(=O)NS(=O)(=O)c4ccc(N[C@H](CCN5CCOCC5)CSc5ccccc5)c(S(=O)(=O)C(F)(F)F)c4)cc3)CC2)C1 [Navitoclax] (partner 0.5 µM)
0.686
3) Oc1nc(-c2ccc(C(F)(F)F)cc2)nc2c1CSCC2 [XAV939] + CC(=O)Nc1cccc(-n2c(=O)n(C3CC3)c(=O)c3c(Nc4ccc(I)cc4F)n(C)c(=O)c(C)c32)c1 [Trametinib] (partner 0.02 µM)
0.376
4) C=C1C(=O)O[C@@H](CCCCCCCC)[C@@H]1C(=O)O [C-75] + NC(=O)Nc1cc(-c2cccc(F)c2)sc1C(=O)N[C@H]1CCCNC1 [AZD7762] (partner 0.2 µM)
1.2

---

This section presents compounds with their documented relative viability values.
test system: PC-14; assay: relative viability (nuclei count vs DMSO), 5 days (fraction); higher = more cells survive; conditions: first compound 0.1 µM
PROPERTY: relative viability

1. NC(=O)Nc1cc(-c2cccc(F)c2)sc1C(=O)N[C@H]1CCCNC1 [AZD7762] + CCNC(=O)c1noc(-c2cc(C(C)C)c(O)cc2O)c1-c1ccc(CN2CCOCC2)cc1 [Luminespib] (partner 0.01 µM)
0.16
2. NC(=O)Nc1cc(-c2cccc(F)c2)sc1C(=O)N[C@H]1CCCNC1 [AZD7762] + CC1(C)CCC(c2ccc(Cl)cc2)=C(CN2CCN(c3ccc(C(=O)NS(=O)(=O)c4ccc(N[C@H](CCN5CCOCC5)CSc5ccccc5)c(S(=O)(=O)C(F)(F)F)c4)cc3)CC2)C1 [Navitoclax] (partner 0.5 µM)
1.02
3. NC(=O)Nc1cc(-c2cccc(F)c2)sc1C(=O)N[C@H]1CCCNC1 [AZD7762] + CC(=O)c1c(C)c2cnc(Nc3ccc(N4CCNCC4)cn3)nc2n(C2CCCC2)c1=O [Palbociclib] (partner 0.5 µM)
0.326
4. NC(=O)Nc1cc(-c2cccc(F)c2)sc1C(=O)N[C@H]1CCCNC1 [AZD7762] + CS(=O)(=O)N1CCN(Cc2cc3nc(-c4cccc5[nH]ncc45)nc(N4CCOCC4)c3s2)CC1 [Pictilisib] (partner 1 µM)
0.67
